system: YFV strain 17D (Stamaril) on Huh-7 cells; assay: microbe, parasite or virus in culture; format: cell-based, yellow fever virus; details: Yellow fever virus, Huh-7
Measured property: EC50

# annotated cases, reported EC50 shown
1. COc1ccc(Cn2c(-c3cc4cc(Cc5ccc6oc(-c7nc8ccccc8n7Cc7ccc(OC)cc7)cc6c5)ccc4o3)nc3ccccc32)cc1: 27.7 µM
2. c1ccc2c(c1)nc(-c1cc3cc(Cc4ccc5oc(-c6nc7ccccc7n6C6CCCCC6)cc5c4)ccc3o1)n2C1CCCCC1: > 28.7 µM
3. CN1CC(=O)N(c2ccccc2)C1c1cc2cc(Cc3ccc4oc(C5N(C)CC(=O)N5c5ccccc5)cc4c3)ccc2o1 (stereo not shown): > 133 µM

Next, consider the following molecule.
Param readout= EC50; system= YFV strain 17D (Stamaril) on Huh-7 cells; entry= Cc1ccc(Cn2c(-c3cc4cc(Cc5ccc6oc(-c7nc8ccccc8n7Cc7ccc(C)cc7)cc6c5)ccc4o3)nc3ccccc32)cc1 ; returns value. > 145 µM
